# Read-out: CYP3A5 (gene 1577)
# Procedure Text: LTEA_HepaRG_CYP3A5: Life Technologies and Expression Analysis (LTEA) Assay for CYP3A5 using HepaRG (AID 2283493)
# Assay Conditions: mRNA level, 48 h; actives raise or lower the signal
Active and inactive are the calls of the source. Rule for the calls: active = hit-call score of the fitted dose curve at least 0.9, where 1 is the maximum; inactive = score below 0.9.
Pick one and only one: active, inactive

Query :: Dear colleague, could you share the recorded outcome for `CCCCNC(=O)n1c(NC(=O)OC)nc2ccccc21` when you have a moment?
Result :: inactive

Query :: Dear colleague, could you share the recorded outcome for COC(=O)C(C)Oc1ccc(Oc2ccc(Cl)cc2Cl)cc1 (stereo not drawn) when you have a moment?
Result :: inactive

Query :: Dear colleague, could you share the recorded outcome for CC(Oc1ccc(Cl)cc1Cl)C(=O)O (stereo not drawn) when you have a moment?
Result :: inactive

Query :: Dear colleague, could you share the recorded outcome for N#Cc1nn(-c2c(Cl)cc(C(F)(F)F)cc2Cl)c(N)c1S(=O)C(F)(F)F (stereo not drawn) when you have a moment?
Result :: inactive

Query :: Dear colleague, could you share the recorded outcome for `COc1nc(NC(C)C)nc(NC(C)C)n1` when you have a moment?
Result :: inactive

Query :: Dear colleague, could you share the recorded outcome for `COc1cnc(OC)n2nc(NS(=O)(=O)c3c(OCC(F)F)cccc3C(F)(F)F)nc12` when you have a moment?
Result :: inactive

Query :: Dear colleague, could you share the recorded outcome for CCON=C(CC)C1=C(O)CC(c2c(C)cc(C)cc2C)CC1=O (stereo not drawn) when you have a moment?
Result :: inactive

Query :: Dear colleague, could you share the recorded outcome for `O=C(Nc1ccccc1)Nc1ccnc(Cl)c1` when you have a moment?
Result :: active
